target: PIK3CG (human) (UniProt P48736); assay: Cell-Based Assay; conditions: u937
Sequence (P48736 whole entry, looked up): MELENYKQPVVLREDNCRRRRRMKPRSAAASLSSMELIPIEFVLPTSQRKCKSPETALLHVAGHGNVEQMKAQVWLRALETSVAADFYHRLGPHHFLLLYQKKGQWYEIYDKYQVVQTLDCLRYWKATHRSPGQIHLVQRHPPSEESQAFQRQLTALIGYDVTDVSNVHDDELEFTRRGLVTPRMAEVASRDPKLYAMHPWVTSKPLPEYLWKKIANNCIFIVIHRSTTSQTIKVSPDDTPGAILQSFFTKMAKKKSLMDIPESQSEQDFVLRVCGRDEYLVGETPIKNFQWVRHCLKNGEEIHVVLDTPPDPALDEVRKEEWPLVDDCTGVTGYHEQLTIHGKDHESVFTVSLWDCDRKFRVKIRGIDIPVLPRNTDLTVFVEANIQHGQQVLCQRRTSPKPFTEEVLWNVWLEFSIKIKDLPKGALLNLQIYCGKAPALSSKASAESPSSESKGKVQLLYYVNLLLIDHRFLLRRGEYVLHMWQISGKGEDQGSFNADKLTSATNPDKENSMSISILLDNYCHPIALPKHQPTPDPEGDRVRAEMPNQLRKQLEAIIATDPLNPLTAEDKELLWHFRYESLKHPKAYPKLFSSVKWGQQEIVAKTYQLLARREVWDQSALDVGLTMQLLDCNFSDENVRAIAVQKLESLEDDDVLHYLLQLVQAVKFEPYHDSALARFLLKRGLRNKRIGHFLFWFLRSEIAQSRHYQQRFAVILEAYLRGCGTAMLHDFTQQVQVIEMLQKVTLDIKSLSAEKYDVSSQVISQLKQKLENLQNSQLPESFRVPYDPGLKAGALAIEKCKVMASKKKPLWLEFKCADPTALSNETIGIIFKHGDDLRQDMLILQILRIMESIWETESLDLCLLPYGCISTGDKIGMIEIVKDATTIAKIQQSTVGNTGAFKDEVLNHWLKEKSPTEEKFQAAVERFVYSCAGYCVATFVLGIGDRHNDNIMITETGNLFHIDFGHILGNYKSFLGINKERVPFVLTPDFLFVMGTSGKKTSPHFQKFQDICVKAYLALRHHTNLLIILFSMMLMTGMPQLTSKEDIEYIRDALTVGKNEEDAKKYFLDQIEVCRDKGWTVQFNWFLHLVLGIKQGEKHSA
property-measured: pIC50
# pIC50 is unitless: minus log10 of the molar concentration; print number only

Known pIC50 results, listed for orientation:
molecule	property-measured	experimental-result
Cc1ccc(S(=O)(=O)NCC[C@@H](O)C(F)(F)F)cc1-c1cnc(N)c(-c2cn(C)nc2C)n1.Cc1ccc(S(=O)(=O)NCC[C@H](O)C(F)(F)F)cc1-c1cnc(N)c(-c2cn(C)nc2C)n1	pIC50	7.22
Cc1cc(-c2nc(-c3cc(S(=O)(=O)N[C@H]4CC[C@H](N)CC4)ccc3C)cnc2N)ccn1	pIC50	7.20
Cc1ccc(S(=O)(=O)NCCC(C)(C)O)cc1-c1cnc(N)c(-c2nc(C3CC3)no2)n1	pIC50	6.89
Cc1ccc(S(=O)(=O)NC[C@H]2CCC(C)(C)O2)cc1-c1cnc(N)c(-n2cncn2)n1	pIC50	6.39
Cc1ccc(S(=O)(=O)NCC2(O)CCOCC2)cc1-c1cnc(N)c(-n2cncn2)n1	pIC50	6.41

Fill in reported pIC50 for this entry: Cc1ncc(-c2nc(-c3cc(S(=O)(=O)NCC4COCCN4C)ccc3C)cnc2N)s1 (stereo not drawn) 6.84

Please list pIC50 recorded for the molecule Cc1ccc(S(=O)(=O)N[C@H]2CC3(C[C@@H](O)C3)C2)cc1-c1cnc(N)c(-c2cn(C)nc2C)n1 (stereo partly drawn) 7.40

* * *

target: PIK3CB (Human) (UniProt P42338)
Sequence (P42338 whole entry, looked up): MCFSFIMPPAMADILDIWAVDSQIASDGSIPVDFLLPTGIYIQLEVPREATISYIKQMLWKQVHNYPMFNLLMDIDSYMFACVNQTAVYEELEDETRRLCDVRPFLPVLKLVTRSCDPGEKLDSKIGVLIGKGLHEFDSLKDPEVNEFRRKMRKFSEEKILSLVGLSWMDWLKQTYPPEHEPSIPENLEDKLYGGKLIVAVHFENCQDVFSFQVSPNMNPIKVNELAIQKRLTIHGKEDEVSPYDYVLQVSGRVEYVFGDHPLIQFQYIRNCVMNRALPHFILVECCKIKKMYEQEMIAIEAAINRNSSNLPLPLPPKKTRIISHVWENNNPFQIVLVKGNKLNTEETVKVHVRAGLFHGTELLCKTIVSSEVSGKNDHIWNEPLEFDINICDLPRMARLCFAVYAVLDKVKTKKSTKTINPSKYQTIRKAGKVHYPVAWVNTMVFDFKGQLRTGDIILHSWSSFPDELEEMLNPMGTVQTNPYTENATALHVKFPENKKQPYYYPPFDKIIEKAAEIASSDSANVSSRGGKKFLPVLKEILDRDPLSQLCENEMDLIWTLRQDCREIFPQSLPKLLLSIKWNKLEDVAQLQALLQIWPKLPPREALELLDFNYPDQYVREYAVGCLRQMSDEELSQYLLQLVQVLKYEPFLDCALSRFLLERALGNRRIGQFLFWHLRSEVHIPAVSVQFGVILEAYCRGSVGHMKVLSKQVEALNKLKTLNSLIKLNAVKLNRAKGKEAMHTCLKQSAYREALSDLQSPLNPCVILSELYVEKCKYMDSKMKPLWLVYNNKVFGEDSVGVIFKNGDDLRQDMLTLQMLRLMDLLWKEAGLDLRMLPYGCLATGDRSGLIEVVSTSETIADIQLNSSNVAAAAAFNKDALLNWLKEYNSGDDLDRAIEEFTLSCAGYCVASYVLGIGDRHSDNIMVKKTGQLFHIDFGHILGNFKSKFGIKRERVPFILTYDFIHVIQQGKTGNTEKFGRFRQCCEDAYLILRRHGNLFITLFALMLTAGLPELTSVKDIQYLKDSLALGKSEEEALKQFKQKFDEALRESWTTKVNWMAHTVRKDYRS
property-measured: pIC50
By convention, pIC50 is the negative base-10 log of a molar concentration.

Quote PIK3CB (Human) (UniProt P42338) pIC50 for entry "CN[C@H]1CCC[C@@H]1NS(=O)(=O)c1ccc(C)c(-c2cnc(N)c(-c3ccnc(C)c3)n2)c1" . 5.57

* * *

biological target: PIK3CG (human) (UniProt P48736); test: Enzyme Assay
property-measured: pIC50
The meaning of pIC50 here: minus log10 of the concentration in molar units.

A selection of reference data follows.
>>> df
                  compound_structure_string  experimental_result
0  Cc1ncc(-c2nc(-c3cc(S(=O)(=O)NCC(F)(F)F)ccc3C)cnc2N)s1                 8.30
1  Cc1ccc(S(=O)(=O)NCC(C)(C)O)cc1-c1cnc(N)c(-c2nc(C(C)C)no2)n1                 7.21

Identify measured pIC50 associated with "Cc1ccc(S(=O)(=O)NC[C@H]2CNC[C@@H]2O)cc1-c1cnc(N)c(-n2cncn2)n1" 6.85

Give a short answer stating reported pIC50 for "Cc1ccc(S(=O)(=O)NCC2(O)CCOCC2)cc1-c1cnc(N)c(-n2cncn2)n1" . 7.03

* * *

target: UniProtKB P48736; test: Cell-Based Assay; conditions: u937
property-measured: IC50 (nM)
# output: bare number, implied unit nM

compound-structure-string	property-measured	experimental-result
Cc1ccc(S(=O)(=O)NCC[C@@H](O)C(F)(F)F)cc1-c1cnc(N)c(-c2cn(C)nc2C)n1.Cc1ccc(S(=O)(=O)NCC[C@H](O)C(F)(F)F)cc1-c1cnc(N)c(-c2cn(C)nc2C)n1	IC50	337

Now look at this entry.
Input "Cc1ccc(S(=O)(=O)NC[C@@H]2COCCN2C)cc1-c1cnc(N)c(-c2cn(C)nc2C)n1.Cc1ccc(S(=O)(=O)NC[C@H]2COCCN2C)cc1-c1cnc(N)c(-c2cn(C)nc2C)n1" , output reported IC50. 241
